Assay: Blood brain barrier permeability in human
Type: ADME
Settings: read-out: BPR
attribute measured: Kp
Enter the number alone.

Lab note: measured Kp of CCS(=O)(=O)c1ccccc1C(=O)N1CCN(c2nc3ccc(F)cc3s2)C[C@@H]1C was 0.2

---

Biological target: N-acylethanolamine-hydrolyzing acid amidase (Homo sapiens)
Sequence (Q02083 29-125 limits assumed): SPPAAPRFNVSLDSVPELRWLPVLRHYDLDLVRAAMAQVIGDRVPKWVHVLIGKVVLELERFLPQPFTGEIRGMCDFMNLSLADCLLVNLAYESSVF
Sequence (Q02083 126-359 limits assumed): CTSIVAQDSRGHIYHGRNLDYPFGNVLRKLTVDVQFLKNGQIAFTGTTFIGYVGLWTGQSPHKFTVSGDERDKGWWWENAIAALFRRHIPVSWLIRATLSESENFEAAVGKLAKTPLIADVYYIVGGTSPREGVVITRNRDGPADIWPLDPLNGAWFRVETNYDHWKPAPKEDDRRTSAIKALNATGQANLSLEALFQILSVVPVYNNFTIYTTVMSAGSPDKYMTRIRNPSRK
Assay: Inhibition of NAAA (unknown origin)
attribute measured: pIC50
Just so you know, pIC50 here is -log10 of the concentration in molar units; reply with that number alone.

Briefly, pIC50 measured for O=C(CCc1ccc(-c2ccccc2)cc1)N1CCCC1 : 5.51

---

Target: N-acylethanolamine-hydrolyzing acid amidase (Homo sapiens)
Assay: Inhibition of human NAAA
attribute measured: pIC50
The scale used: pIC50 is minus the common logarithm of the concentration in molar units.

The recorded pIC50 for entry CCCCc1ccc(O[C@@H]2C[C@H]3CC[C@@H](C2)N3CS(=O)(=O)c2c(C)n[nH]c2C)cc1 equals 7.64

The reported measurements were obtained from ChEMBL document CHEMBL4610086.
